assay: Solubility of Compound I sodium salt forms in solvents and binary solvent systems; type: physicochemical; conditions: organic solvent or mixture, thermodynamic from solid; ACN, 60° C.; read-out: Solubility
MEASUREMENT NAME: solubility

GET /values?readout=solubility&item= O=C(O)c1cc(-c2ccc(OC3CC3)c(Cl)c2)ncn1 [Compound I sodium Pattern A] < 1200 µg/mL

---

test: Approximate aqueous solubility of salts/co-crystals (visual, solvent addition method); assay type: physicochemical; conditions: water, thermodynamic from solid, free acid solids retained from filtered aqueous phase, portion rinsed with water, read-out: solubility observed
MEASUREMENT NAME: solubility

GET /values?readout=solubility&item= `O=C(O)c1cc(-c2ccc(OC3CC3)c(Cl)c2)ncn1` < 4000 µg/mL
